Target: endogenous human RUP43 (Homo sapiens)
Sequence (Q8TDU6 1-330): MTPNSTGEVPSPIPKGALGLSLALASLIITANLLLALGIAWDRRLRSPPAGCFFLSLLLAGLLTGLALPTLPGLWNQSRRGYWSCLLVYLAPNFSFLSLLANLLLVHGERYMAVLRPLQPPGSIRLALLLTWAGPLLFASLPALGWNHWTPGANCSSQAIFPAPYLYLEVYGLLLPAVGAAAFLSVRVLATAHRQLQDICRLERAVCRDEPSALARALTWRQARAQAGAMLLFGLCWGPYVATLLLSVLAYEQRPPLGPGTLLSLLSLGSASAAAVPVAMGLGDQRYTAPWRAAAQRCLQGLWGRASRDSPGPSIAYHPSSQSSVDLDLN
Test: Melanophore assay
Format: cell-based
Set-up: expressed in transfected cells; host or cells: melanophores (skin cells of lower vertebrates), transfected by electroporation
Settings: melanophores transfected with endogenous human RUP43; 100 uM-51.2 pM, one hour
QUANTITY_MEASURED: EC50

Which EC50 value is on record for O=C(Cc1ccccc1Cl)N1CCC(c2nc(C(=O)N3CCCc4ccccc43)cs2)CC1 [Compound 2] ?
212 nM
